- test_name: Stability of OSC-GCDIs in phosphate buffers
- Assay type: physicochemical
- assay_setup: buffer, pH 7.4, half-life
quantity_name: half-life at 100 μM

>>> data_value("CCC(CC)O[C@@H]1C=C(C(=O)O)C[C@H](N=C(N2C(=O)CC(C)(C)C2=O)N2C(=O)CC(C)(C)C2=O)[C@H]1NC(C)=O [OSC-GCDI(D)]")
"> 8 h"
